Measured values drawn from the supplement of paper PMC9948646 for this set.

Tested on: gramicidin D channels in DC22:1PC lipid vesicles (bilayer-modifying potency)
Assay: initial Tl+ fluorescence quench rate relative to no-drug control (NormRate, gramicidin monomer-dimer shift) (ratio (fold of control)); higher = stronger bilayer-modifying effect (equilibrium shifted toward conducting dimers), active = 1.5 or more
Settings: 10 µM; lipid concentration 50 µM; temperature: 25 °C
Listed here are compounds together with their documented initial Tl+ fluorescence quench rate.
// keep it numeric: no unit symbol after the value

Some compounds with known initial Tl+ fluorescence quench rate results, for comparison:
| SMILES_STRING | SYSTEM_UNDER_TEST | initial Tl+ fluorescence quench rate |
| --- | --- | --- |
| O=C(CN1CCOCC1)Nc1ccc2ncnc(Nc3ccc(OCc4cccc(F)c4)c(Cl)c3)c2c1 | gramicidin D channels in DC22:1PC lipid vesicles (bilayer-modifying potency) | 6.71 |
| C[C@@H](Oc1cccc(Cl)c1)C(=O)Nc1ccc2oc(-c3ccncc3)nc2c1 | gramicidin D channels in DC22:1PC lipid vesicles (bilayer-modifying potency) | 1.72 |

Please give the documented initial Tl+ fluorescence quench rate of Brc1cncc(-c2cc(NCCCn3ccnc3)nc(-c3ccccc3)n2)c1
2.73

Please give the documented initial Tl+ fluorescence quench rate of NS(=O)(=O)c1cncc(-c2ccc3nccc(-c4cn[nH]c4)c3n2)c1
1.18

Please give the documented initial Tl+ fluorescence quench rate of [H]/N=C(\Nc1ccc(Cl)cc1)Nc1nc(C)cc(NCCc2ccccc2)n1
3.21

====

Tested on: gramicidin D channels in DC22:1PC lipid vesicles (bilayer-modifying potency)
Test: initial Tl+ fluorescence quench rate relative to no-drug control (NormRate, gramicidin monomer-dimer shift) (ratio (fold of control)); higher = stronger bilayer-modifying effect (equilibrium shifted toward conducting dimers), active = 1.5 or more
Details: 10 µM; lipid concentration 50 µM; temperature: 25 °C
METRIC: initial Tl+ fluorescence quench rate
// keep it numeric: no unit symbol after the value

Some molecules with known initial Tl+ fluorescence quench rate results, for comparison:
| SMILES_STRING | initial Tl+ fluorescence quench rate |
| --- | --- |
| N#Cc1nc(-c2ccccc2)oc1S(=O)(=O)c1ccc(Cl)cc1 | 1.12 |
| C[C@H]1c2cccc(O)c2C(=O)C2=C(O)[C@]3(O)C(=O)C(C(N)=O)=C(O)[C@@H](N(C)C)[C@@H]3[C@@H](O)[C@@H]21 | 1.02 |

Next, consider the following molecule.
Report the value of initial Tl+ fluorescence quench rate obtained on gramicidin D channels in DC22:1PC lipid vesicles (bilayer-modifying potency) for CN1CCN(S(=O)(=O)c2ccc(-c3ccc4c(Nc5ccc6nn[nH]c6c5)ccnc4c3)cc2)CC1 .
1.28

====

System: gramicidin D channels in DC22:1PC lipid vesicles (bilayer-modifying potency)
Assay: initial Tl+ fluorescence quench rate relative to no-drug control (NormRate, gramicidin monomer-dimer shift) (ratio (fold of control)); higher = stronger bilayer-modifying effect (equilibrium shifted toward conducting dimers), active = 1.5 or more
Conditions: 10 µM; lipid concentration 50 µM; temperature: 25 °C
Mark one answer only. Choices: True (active), False (inactive)

| SMILES_STRING | CAT |
| --- | --- |
| Cc1ccc2oc(-c3cc(NC(=O)Cc4ccccc4)ccc3Cl)nc2c1 | False |
| CCOc1ccc2cc(-c3nn(C(C)(C)C)c(N)c3C(N)=O)cnc2c1 | False |

Now, please, on to the next compound.
Which outcome was assigned to O=C(NCCc1c[nH]c2ccccc12)c1cc2ccccc2oc1=O in this test?
True
